Data credit: patent US9963452B2

- Experimental system: ROS (Homo sapiens)
- Sequence (P08922 28-2347): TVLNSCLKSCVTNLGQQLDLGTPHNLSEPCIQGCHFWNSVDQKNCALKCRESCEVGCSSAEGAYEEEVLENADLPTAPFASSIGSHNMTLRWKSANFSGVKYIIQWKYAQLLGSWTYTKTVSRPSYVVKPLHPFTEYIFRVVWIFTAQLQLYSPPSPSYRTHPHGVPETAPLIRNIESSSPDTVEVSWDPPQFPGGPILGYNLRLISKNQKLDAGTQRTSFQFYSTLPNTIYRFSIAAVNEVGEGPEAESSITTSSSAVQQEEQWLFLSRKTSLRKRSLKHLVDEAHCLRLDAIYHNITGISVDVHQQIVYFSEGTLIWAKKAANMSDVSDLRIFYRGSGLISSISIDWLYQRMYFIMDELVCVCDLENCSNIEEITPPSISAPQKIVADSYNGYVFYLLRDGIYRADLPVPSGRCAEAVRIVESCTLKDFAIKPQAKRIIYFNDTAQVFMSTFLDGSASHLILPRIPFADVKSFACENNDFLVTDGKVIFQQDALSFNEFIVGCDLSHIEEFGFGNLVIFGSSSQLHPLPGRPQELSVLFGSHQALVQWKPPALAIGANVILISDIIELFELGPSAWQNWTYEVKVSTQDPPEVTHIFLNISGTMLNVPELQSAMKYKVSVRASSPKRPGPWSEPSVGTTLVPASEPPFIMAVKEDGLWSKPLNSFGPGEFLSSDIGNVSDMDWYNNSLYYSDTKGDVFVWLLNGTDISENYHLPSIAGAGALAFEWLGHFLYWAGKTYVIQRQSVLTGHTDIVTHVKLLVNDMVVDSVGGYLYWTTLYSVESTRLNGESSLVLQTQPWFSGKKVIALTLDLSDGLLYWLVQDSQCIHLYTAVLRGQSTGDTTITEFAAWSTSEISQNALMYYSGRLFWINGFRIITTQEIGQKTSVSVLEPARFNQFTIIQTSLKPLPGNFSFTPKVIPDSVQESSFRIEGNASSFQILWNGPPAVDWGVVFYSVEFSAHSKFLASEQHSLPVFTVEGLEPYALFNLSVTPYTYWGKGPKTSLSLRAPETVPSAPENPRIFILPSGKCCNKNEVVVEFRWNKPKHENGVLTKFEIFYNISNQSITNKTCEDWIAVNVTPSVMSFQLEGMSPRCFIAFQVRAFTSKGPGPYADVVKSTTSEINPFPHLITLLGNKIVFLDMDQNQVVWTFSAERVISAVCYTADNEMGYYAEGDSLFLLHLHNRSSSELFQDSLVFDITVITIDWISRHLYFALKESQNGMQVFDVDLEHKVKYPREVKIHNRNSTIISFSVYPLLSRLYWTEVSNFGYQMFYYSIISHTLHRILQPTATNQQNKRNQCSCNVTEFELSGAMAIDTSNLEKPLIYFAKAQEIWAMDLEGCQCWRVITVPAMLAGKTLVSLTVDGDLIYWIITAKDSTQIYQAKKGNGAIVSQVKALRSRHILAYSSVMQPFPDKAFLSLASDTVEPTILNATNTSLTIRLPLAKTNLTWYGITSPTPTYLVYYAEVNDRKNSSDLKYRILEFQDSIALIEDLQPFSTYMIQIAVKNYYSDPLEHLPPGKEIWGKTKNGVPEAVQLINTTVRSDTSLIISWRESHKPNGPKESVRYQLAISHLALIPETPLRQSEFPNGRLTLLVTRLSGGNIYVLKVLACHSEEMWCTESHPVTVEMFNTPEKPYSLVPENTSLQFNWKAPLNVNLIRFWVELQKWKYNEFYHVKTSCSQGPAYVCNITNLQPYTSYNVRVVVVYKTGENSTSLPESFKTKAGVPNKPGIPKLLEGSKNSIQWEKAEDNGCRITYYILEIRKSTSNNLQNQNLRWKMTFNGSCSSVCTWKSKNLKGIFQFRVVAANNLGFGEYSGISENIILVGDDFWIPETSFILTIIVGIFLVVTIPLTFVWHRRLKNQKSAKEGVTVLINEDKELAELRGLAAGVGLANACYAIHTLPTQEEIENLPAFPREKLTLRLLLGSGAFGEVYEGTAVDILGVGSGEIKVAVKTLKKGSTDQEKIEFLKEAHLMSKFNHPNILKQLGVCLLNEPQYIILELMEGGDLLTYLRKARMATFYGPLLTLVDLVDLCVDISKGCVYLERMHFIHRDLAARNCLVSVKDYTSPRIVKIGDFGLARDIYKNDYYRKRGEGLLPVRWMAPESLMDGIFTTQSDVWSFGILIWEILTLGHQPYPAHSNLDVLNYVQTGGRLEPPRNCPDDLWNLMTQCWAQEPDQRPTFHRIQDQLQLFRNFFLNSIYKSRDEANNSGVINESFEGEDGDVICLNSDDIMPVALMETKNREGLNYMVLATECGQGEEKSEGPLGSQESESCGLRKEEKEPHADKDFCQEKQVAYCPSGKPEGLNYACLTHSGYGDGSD
- Protocol notes: In vitro ROS enzymatic reaction assay (HTRF, Cisbio)
- Assay type: biochemical
- Set-up: ROS or EGFR enzyme, 0.008 ng/ul
- Reported conditions: ROS kinase, compound at 5 uM
Please respond with Y when measured Kinase Inhib. 5 uM (%) is strictly beneath 30%, and with N in all other cases.

Compound: Nc1nc(Nc2ccc(C(=O)N3CCCC4CCCCC43)cc2)cc(Nc2ccc3ncsc3c2)n1 (stereo not drawn)
Experimental system: ROS (Homo sapiens)
Assigned class: Y
--
Compound: COc1ccc(C(NC(=O)c2n[nH]c(-c3ccccc3)c2C)c2ccncc2)cc1 (stereo not drawn)
Experimental system: ROS (Homo sapiens)
Assigned class: N
--
Compound: O=c1nc2[nH]c3ccc([N+](=O)[O-])cc3nc-2c(=O)[nH]1
Experimental system: ROS (Homo sapiens)
Assigned class: Y
--
Compound: Cn1c(=O)c2c(nc3n(CCO)c(-c4ccccc4)cn23)n(C)c1=O [drawing 265]
Experimental system: ROS (Homo sapiens)
Assigned class: Y
--
Compound: COc1ccc(Nc2nc(N(C)CCO)nc3c2cnn3-c2ccccc2)cc1 [drawing 250]
Experimental system: ROS (Homo sapiens)
Assigned class: N

Attention now turns to another entry.
Query: Determine whether this compound shows Kinase Inhib. 5 uM (%) lower than 30% (ties excluded): O=C(NCCc1ccc(F)cc1)c1cccc(Nc2nccc(Nc3ccc4ncsc4c3)n2)c1 [drawing 235]
Reply: N

----------
- Tested on: HeLa cervical cancer cell line
- Protocol notes: In-vitro cell survival assay (Alamar blue), HeLa
- Format: cell-based
- Reported conditions: Homo sapiens, 24 h, one day after compound addition
Measured attribute: pEC50
pEC50 here is simply -log10 of the concentration when that concentration is written in mol/L.

Molecule: O=C(c1cccc(Nc2nccc(Nc3ccc4ncsc4c3)n2)c1)N1CCCCC1 [drawing 438]
Measured value: 4.72
--
Molecule: Cc1cc(C)n(-c2cccc(C(=O)NC[C@H]3Cc4cc(Cl)cc(-c5cnccn5)c4O3)c2)n1
Measured value: 4.15
--
Molecule: CC(C)(CO)NC(=O)c1cccc(Nc2nccc(Nc3ccc4ncsc4c3)n2)c1 [drawing 408]
Measured value: 4.92
--
Molecule: O=C(O)c1ccc(Nc2ncc(Cl)c(Nc3ccc4ncsc4c3)n2)cc1 [drawing 445]
Measured value: 5.30
--
Molecule: Cc1ccc(CNC(=O)c2cccc(Nc3nccc(Nc4ccc5ncsc5c4)n3)c2)o1 [drawing 419]
Measured value: 5.00

Query: Fill in reported pEC50 for this entry: COc1ccc(C2=CCNCC2)cc1Nc1nccc(Nc2ccc3ncsc3c2)n1 [drawing 467]
Reply: 4.82

Query: Fill in reported pEC50 for this entry: O=C(NCC1CCNCC1)c1cccc(Nc2ncc(Cl)c(Nc3ccc4ncsc4c3)n2)c1 [drawing 471]
Reply: 4.52

Query: Fill in reported pEC50 for this entry: Cc1cc(-c2ccccc2)c2ccc(N)nc2n1 [drawing 480]
Reply: 4.24

Query: Fill in reported pEC50 for this entry: O=c1c(O)c(-c2ccc(O)c(O)c2)oc2cc(O)cc(O)c12 [drawing 406]
Reply: 4.68

Query: Fill in reported pEC50 for this entry: O=C(NC[C@@H]1CCCO1)c1cccc(Nc2nccc(Nc3ccc4ncsc4c3)n2)c1
Reply: 4.96

Query: Fill in reported pEC50 for this entry: c1cc(Nc2cc(C3CC3)[nH]n2)nc(Nc2ccc(NCc3cc(C4OCCO4)c(C4OCCO4)s3)cc2)n1 [drawing 437]
Reply: 4.89

Query: Fill in reported pEC50 for this entry: CC(C)c1nc(Nc2ccc(N)cc2)nc(Nc2cc(C3CC3)[nH]n2)n1 [drawing 461]
Reply: 4.85

Query: Fill in reported pEC50 for this entry: Cc1cccc(Nc2nccc(Nc3cccc(C(=O)NCc4ccccc4F)c3)n2)c1 [drawing 412]
Reply: 5.05

Query: Fill in reported pEC50 for this entry: CCC(C)(C)NC(=O)c1cccc(Nc2nccc(Nc3ccc4ncsc4c3)n2)c1 [drawing 380]
Reply: 5.10

Query: Fill in reported pEC50 for this entry: Nc1nc(Nc2ccc(C(=O)NCCc3ccncc3)cc2)cc(Nc2ccc3ncsc3c2)n1 [drawing 417]
Reply: 4.66

----------
Measured EC50 by item
- System: LN18 glioblastoma cell line
- Protocol notes: In-vitro cell survival assay (Alamar blue), LN18
- Assay type: cell-based
- Reported conditions: Homo sapiens, LN-18, 24 h; LN18, one day after compound addition
Value expressed in µM; do not type the unit.

# example entries with known answers
Compound: Nc1ccc(Nc2nccc(Nc3cc(C4CC4)[nH]n3)n2)cc1 [drawing 436]
EC50, µM: 10
--
Compound: O=C1NCCN1CCN1C(=O)c2ccccc2N[C@H]1c1ccccc1 [drawing 391]
EC50, µM: 36
--
Compound: O=C(c1cccc(Nc2nccc(Nc3ccc4ncsc4c3)n2)c1)N1CCCCCC1 [drawing 421]
EC50, µM: 9
--
Compound: COc1ccccc1-c1cc(C(F)F)n2ncc(C(=O)NCc3cccnc3)c2n1 [drawing 361]
EC50, µM: 16

Query: Fill in reported EC50 for this entry: CCC(C)(C)NC(=O)c1cccc(Nc2nccc(Nc3ccc4ncsc4c3)n2)c1 [drawing 380]
Reply: 15

Query: Fill in reported EC50 for this entry: NCC1CCN(C(=O)c2cccc(Nc3ncc(Cl)c(Nc4ccc5ncsc5c4)n3)c2)CC1 [drawing 470]
Reply: 19

Query: Fill in reported EC50 for this entry: O=c1c(O)c(-c2ccc(O)c(O)c2)oc2cc(O)cc(O)c12 [drawing 406]
Reply: 24

----------
Measured pIC50 by item
- Experimental system: UniProt:P08922
- Protocol notes: In vitro ROS enzymatic reaction assay (HTRF, Cisbio)
- Type: biochemical
- Design: ROS or EGFR enzyme, 0.008 ng/ul
pIC50 here is simply -log10 of the concentration when that concentration is written in mol/L.

# example entries with known answers
Molecule: CC(C)(CO)NC(=O)c1cccc(Nc2nccc(Nc3ccc4ncsc4c3)n2)c1 [drawing 271]
pIC50: 6.44
//
Molecule: Cc1cccc(Nc2ccnc(Nc3cccc(C(=O)N4CC=CCC4)c3)n2)c1 [drawing 234]
pIC50: 7.10
//
Molecule: CCOc1nc(Nc2cccc(Cc3nc4ccccc4s3)c2)nc(C(C)C)n1
pIC50: 5.03
//
Molecule: c1cc(Nc2cc(C3CC3)[nH]n2)nc(Nc2ccc(NCc3cc(C4OCCO4)c(C4OCCO4)s3)cc2)n1 [drawing 300]
pIC50: 5.94
//
Molecule: Oc1[nH]nc2nnc(-c3ccccc3)c(-c3ccccc3)c12 [drawing 257]
pIC50: 4.69
//
Molecule: Cc1cccc(Nc2nccc(Nc3cccc(C(=O)NCCN4CCOCC4)c3)n2)c1 [drawing 244]
pIC50: 5.68
//
Molecule: O=C(NCCc1ccc(F)cc1)c1cccc(Nc2nccc(Nc3ccc4ncsc4c3)n2)c1 [drawing 235]
pIC50: 6.89
//
Molecule: Clc1nccc(Nc2cc(C3CC3)[nH]n2)n1 [drawing 298]
pIC50: 5.68

Query: Fill in reported pIC50 for this entry: CC1=NNC(=O)/C1=C\c1cn(-c2ccccc2)nc1-c1ccccc1 [drawing 266]
Reply: 5.91

Query: Fill in reported pIC50 for this entry: Nc1cccc(C2CCN(c3nccc(Nc4ccc5ncsc5c4)n3)CC2)c1 [drawing 302]
Reply: 7.32

Query: Fill in reported pIC50 for this entry: NC1CCN(C(=O)c2cccc(Nc3ncc(Cl)c(Nc4ccc5ncsc5c4)n3)c2)CC1 [drawing 332]
Reply: 6.78

Query: Fill in reported pIC50 for this entry: CCN(CCO)c1nc(Nc2ccc(F)cc2)c2cnn(-c3ccccc3)c2n1 [drawing 249]
Reply: 4.77

Query: Fill in reported pIC50 for this entry: O=C1NN=C(c2ccccc2)/C1=C1\OC(c2ccccc2)=CS1 [drawing 255]
Reply: 6.80

Query: Fill in reported pIC50 for this entry: CN(C)CC(C)(C)CNC(=O)c1cccc(Nc2nccc(Nc3ccc4ncsc4c3)n2)c1 [drawing 276]
Reply: 6.57

Query: Fill in reported pIC50 for this entry: CN1CCN(C(=O)c2ccc(Nc3ncc(Cl)c(Nc4ccc5ncsc5c4)n3)cc2)CC1 [drawing 307]
Reply: 6.39

Query: Fill in reported pIC50 for this entry: CC(C)c1nc(Nc2ccc(C(=O)N3CCCC3)cc2)nc(Nc2ccc3ncsc3c2)n1 [drawing 320]
Reply: 5.73

Query: Fill in reported pIC50 for this entry: CC(C)c1nc(Nc2cccc(Br)c2)nc(Nc2cc(C3CC3)n[nH]2)n1
Reply: 7.42

Query: Fill in reported pIC50 for this entry: CC(C)c1nc(Nc2ccc3ncsc3c2)nc(NC2CCCCC2)n1
Reply: 5.82

----------
Measured EC50 by item
- System: U87 glioblastoma cell line
- Protocol notes: In-vitro cell survival assay (Alamar blue), U87
- Format: cell-based
- Reported conditions: 24 h; U87, one day after compound addition
Value expressed in µM; do not type the unit.

Query: Fill in reported EC50 for this entry: Cc1cccc(Nc2nccc(Nc3cccc(C(=O)NCCN4CCOCC4)c3)n2)c1 [drawing 381]
Reply: 36

Query: Fill in reported EC50 for this entry: Clc1ccc2nc(NCc3ccccn3)nc(-c3ccccc3)c2c1 [drawing 357]
Reply: 71
